assay: Selectivity index, ratio of IC50 for mouse 3T3 cells to IC50 for human HepG2 cells; assay type: toxicity; settings: 3T3 cells and HepG2 cells, read-out: Ratio IC50
READOUT_LABEL: selectivity ratio
// return a plain number; no unit text

STRUCTURE_STRING | selectivity ratio
Cc1cc(=O)oc2cc(OCCn3cc(CO)nn3)ccc12 | 0.031

Value of selectivity ratio reported for the compound Cc1cc(=O)oc2cc(OCCn3cc(COc4cccc5c(C)cc(=O)oc45)nn3)ccc12 is 0.221

Value of selectivity ratio reported for the compound Cc1cc(=O)oc2cc(OCCn3cc(-c4ccccc4)nn3)ccc12 is 0.014

Value of selectivity ratio reported for the compound Cc1cc(=O)oc2cc(O)ccc12 is 0.161

Value of selectivity ratio reported for the compound Cc1cc(=O)oc2cc(OCCn3cc(CCN4C(=O)c5ccccc5C4=O)nn3)ccc12 is 0.007
